Sourced from ChEMBL document CHEMBL1132143

tested on: Calf thymus DNA; experiment: Tested for thermal denaturation against CT-DNA at 4 hours; format: nucleic-acid assay; details: Bos taurus
property measured: ΔTm (°C)
Value expressed in °C; do not type the unit.

Worked examples follow.
compound	readout units	ΔTm
COc1cc2c(cc1O)N=C[C@@H]1CCCN1C2=O	°C	0.5
C/C=C1\C[C@H]2C=Nc3cc(O)c(OC)cc3C(=O)N2C1	°C	2.4
COc1nc(OC)c2c(n1)C(=O)N1CCC[C@H]1C=N2	°C	0.2
O=C1c2ccccc2N=C[C@@H]2CCCN12	°C	0.4
COc1cc2c(cc1O)C(=O)N1CCC[C@H]1C=N2	°C	0.5
CO[C@H]1Nc2ncccc2C(=O)N2CCC[C@@H]12	°C	0.5
O=C1c2cc3c(cc2N=C[C@@H]2CCCN12)OCCO3	°C	0.3
COc1cc2c(cc1NC(=O)OCc1ccccc1)N=C[C@@H]1CCCN1C2=O	°C	0.2
CO[C@@H]1Nc2ncccc2C(=O)N2CCC[C@@H]12	°C	0.5
CO[C@H]1Nc2nccnc2C(=O)N2CCC[C@@H]12	°C	0.6

Kindly note: Calf thymus DNA, CCCCOC1CC[C@H]2C=Nc3cc(O)c(OC)cc3C(=O)N12 (some centres not stated) , ΔTm value reported: 0.6

Kindly note: Calf thymus DNA, `COc1cc2c(cc1OCc1ccccc1)N=C[C@@H]1CCCN1C2=O` , ΔTm value reported: 0.4

Kindly note: Calf thymus DNA, `COC(=O)CCOc1cc2c(cc1OC)C(=O)N1CCC[C@H]1C=N2` , ΔTm value reported: 0.5

Kindly note: Calf thymus DNA, COC1Nc2c(ccc(C)c2O)C(=O)N2C=C(/C=C/C(N)=O)C[C@@H]12 (some centres not stated) , ΔTm value reported: 11.2

Kindly note: Calf thymus DNA, `COc1cc2c(cc1OCCCOCc1ccccc1)N=C[C@@H]1CCCN1C2=O` , ΔTm value reported: 0.4

Kindly note: Calf thymus DNA, `COC(=O)c1c2c(nn1C)C(=O)N1CCC[C@H]1C=N2` , ΔTm value reported: 0.3

Kindly note: Calf thymus DNA, `O=C1c2cc3c(cc2N=C[C@@H]2CCCN12)OCO3` , ΔTm value reported: 0.2
